System: XIP peptide (Xip251-270)
Assay: small-molecule binders of XIP peptide, primary screen, biochemical, small-molecule microarray, fluorescence 635/667 nm, 0.5 µg/mL protein (AID 1183)
Settings: small-molecule microarray binding, fluorescence 635 nm; higher = more signal
Threshold check on composite z-score: at or above 0.6 gives Fulfilled, strictly below gives Not fulfilled.

Please indicate if the recorded composite z-score for "CO[C@@H]1COC(=O)[C@@H]2CCCN2C(=O)[C@@H](C)COC(=O)CC=C[C@H]1C" meets or exceeds 0.6.
Not fulfilled

Please indicate if the recorded composite z-score for "COC(=O)NCC=Cc1nc(CCCO)co1" meets or exceeds 0.6.
Not fulfilled

Please indicate if the recorded composite z-score for "CO[C@H]1COC(=O)CC=C[C@H](C)[C@@H](OC)COC(=O)[C@H](C)COC(=O)CC=C[C@@H]1C" meets or exceeds 0.6.
Not fulfilled

Please indicate if the recorded composite z-score for "C[C@@H](c1ccccc1)N1C(=O)[C@H]2[C@H]3[C@H](O)[C@H](O)CC(=NO[C@@H]4O[C@H](CO)[C@@H](O)[C@H](O)[C@H]4O)[C@@H]3CC[C@H]2C1=O" meets or exceeds 0.6.
Not fulfilled

Please indicate if the recorded composite z-score for "COc1cccc([C@@H]2Oc3ccc(OC)cc3C(=O)[C@H]2O)c1" meets or exceeds 0.6.
Fulfilled

Please indicate if the recorded composite z-score for "CO[C@H]1COC(=O)CCC[C@@H](C)[C@H](OC)COC(=O)[C@@H](C)NC(=O)CC=C[C@@H]1C" meets or exceeds 0.6.
Not fulfilled

Please indicate if the recorded composite z-score for CCOC(=O)[C@H](Cc1ccccc1)NC(=O)CCC1CC(OC(=O)NCc2ccc3c(c2)OCO3)CC2(CCCC(COC(=O)NCCc3ccccc3OC)O2)O1 (stereo partly specified) meets or exceeds 0.6.
Fulfilled

Please indicate if the recorded composite z-score for "O=C1C=C[C@@H](O)[C@@H]2[C@@H]3C(=O)N(c4ccc(F)cc4F)C(=O)[C@@H]3CC[C@@H]12" meets or exceeds 0.6.
Not fulfilled

Please indicate if the recorded composite z-score for "COC(=O)CC=C[C@@H](C)[C@@H](C=NOC[C@H]1O[C@H](c2ccccc2)C=C[C@@H]1Oc1ccc(OC)cc1)OC" meets or exceeds 0.6.
Not fulfilled

Please indicate if the recorded composite z-score for "CCOC(=O)NN=C1C[C@@H](O)[C@@H](O)[C@@H]2[C@@H]3C(=O)N(Cc4ccc5c(c4)OCO5)C(=O)[C@@H]3CC[C@H]12" meets or exceeds 0.6.
Not fulfilled

Please indicate if the recorded composite z-score for "CO[C@H]1COC(=O)[C@@H](C)COC(=O)[C@H](C)NC(=O)CC=C[C@H]1C" meets or exceeds 0.6.
Not fulfilled

Please indicate if the recorded composite z-score for "CO[C@@H]1COC(=O)CC=C[C@@H](C)[C@H](OC)COC(=O)[C@@H](C)COC(=O)CC=C[C@H]1C" meets or exceeds 0.6.
Not fulfilled

Please indicate if the recorded composite z-score for Cc1ccc(S(=O)(=O)NC(CCc2ccccc2)CC(=O)C(C)(C)C)cc1 (stereo unspecified) meets or exceeds 0.6.
Not fulfilled

Please indicate if the recorded composite z-score for "COC(=O)CC=C[C@H](C)[C@@H](OCc1cccc(Br)c1)[C@@H](C)[C@H](OC)C1CCCCC1" meets or exceeds 0.6.
Fulfilled

Please indicate if the recorded composite z-score for "COC(=O)[C@@H]1CC[C@H](C)[C@@H](c2ccc(C)cc2)N1C(=O)c1ccc(C=NO[C@H](C)c2cn([C@H](CO)Cc3ccccc3)nn2)cc1" meets or exceeds 0.6.
Fulfilled

Please indicate if the recorded composite z-score for "CC(C)=CCCC(C)=CCON=C1C[C@@H](O)[C@@H](O)[C@@H]2[C@@H]3C(=O)N(C(C)(C)C)C(=O)[C@@H]3CC[C@@H]12" meets or exceeds 0.6.
Not fulfilled

====

Assay: basal HepG2 mitochondrial membrane potential changes, profiling panel, cell-based, JC-1 fluorescence, 24 h, 100 nL compound (AID 1167)
Settings: higher = more signal
quantity_measured: z-score

I'd like to know its z-score. The compound in question is "CC(CCN1CCCCc2nc(C)c(C)cc21)=NOC[C@@H](O)COCc1ccco1"
-1.43

I'd like to know its z-score. The compound in question is "CO[C@H]1COC(=O)CC=C[C@@H](C)[C@H](OC)COC(=O)[C@@H]2CCCN2C(=O)CC=C[C@@H]1C"
0.0843

I'd like to know its z-score. The compound in question is "Cn1c(=O)n2n(c1=O)[C@H]1[C@H](O)[C@@H]3O[C@@H]3C(=O)[C@H]1CC2"
0.45

I'd like to know its z-score. The compound in question is "CON=Cc1ccc(C(=O)N2[C@H](c3ccc(C)cc3)[C@@H](C)CC[C@H]2C(=O)OC)cc1"
0.129

I'd like to know its z-score. The compound in question is "COC(=O)CC=C[C@@H](C)[C@H](OCc1cccc(-c2ccccc2)c1)C1CCCCC1"
-0.579

I'd like to know its z-score. The compound in question is "C#CCCCON=C1C[C@@H](O)[C@@H](O)[C@@H]2[C@@H]3C(=O)N(C(C)(C)C)C(=O)[C@@H]3CC[C@H]12"
-0.161

I'd like to know its z-score. The compound in question is "CC(=O)OC[C@H]1O[C@H](CCON=C2[C@H]3CCn4c(=O)n(-c5ccccc5)c(=O)n4[C@H]3[C@H](O)[C@@H]3O[C@H]23)C=C[C@@H]1OC(C)=O"
-0.58

I'd like to know its z-score. The compound in question is "C[C@@H](ON=C1[C@H]2CCn3c(=O)n(-c4ccccc4)c(=O)n3[C@H]2[C@H](O)[C@@H]2O[C@H]12)c1cn([C@@H]2COC[C@H]2O)nn1"
-0.377

I'd like to know its z-score. The compound in question is COc1cccc([C@H]2Oc3ccc(OC)cc3C(=NOC(C)CN3CCCCc4nc(C)c(C)cc43)[C@@H]2O)c1 (stereo partly specified)
-0.108

I'd like to know its z-score. The compound in question is CCOC(=O)[C@H](CC(C)C)NC(=O)CCC1CC(OC(=O)NCc2cccc3ccccc23)CC2(CCCC(COC(=O)NCCc3ccc(Cl)cc3)O2)O1 (stereo partly specified)
0.326

I'd like to know its z-score. The compound in question is "C#CCCCON=C1C[C@@H](O)[C@@H](O)[C@@H]2[C@@H]3C(=O)N(c4cccc(Oc5ccccc5)c4)C(=O)[C@@H]3CC[C@H]12"
0.862

I'd like to know its z-score. The compound in question is "CCCNC(=O)OC[C@H]1O[C@H](CCON=C(C)C)C=C[C@@H]1Oc1ccc(OC)cc1"
-1.57

I'd like to know its z-score. The compound in question is "CCOC(=O)NN=C1C[C@@H](O)[C@@H](O)[C@@H]2[C@@H]3C(=O)N([C@@H](C)c4ccccc4)C(=O)[C@@H]3CC[C@@H]12"
-0.369

I'd like to know its z-score. The compound in question is COC(=O)[C@H](C)NC(=O)CCC1CC(OC(=O)NCCc2ccc(F)cc2)CC2(CCCC(COC(=O)NCCC(C)C)O2)O1 (stereo partly specified)
-0.591

I'd like to know its z-score. The compound in question is CCOC(=O)[C@H](CC(C)C)NC(=O)CCC1CC(OC(=O)NCc2cccc3ccccc23)CC2(CCCC(COC(=O)NCCCN3CCCC3=O)O2)O1 (stereo partly specified)
0.106

I'd like to know its z-score. The compound in question is "O=C1[C@H]2[C@H]3[C@H](O)[C@H](O)CC(=NOC[C@@H](O)COCc4ccco4)[C@@H]3CC[C@H]2C(=O)N1C[C@@H]1CCCO1"
0.607

====

Tested on: XIP peptide (Xip251-270) binding
Assay: small-molecule binders of XIP peptide, primary screen, biochemical, small-molecule microarray, fluorescence 635/667 nm, 0.1 µg/mL protein (AID 1182)
Settings: fluorescent protein binding, 635 nm, higher = more signal, called active from +8 up or from −8 down
Please provide measured composite z-score for the entries that follow.
Keep the answer to the number alone.

I'd like to know its composite z-score. The compound in question is "CO[C@H]1COC(=O)CC=C[C@H](C)[C@@H](OC)COC(=O)[C@H](C)COC(=O)CC=C[C@@H]1C"
0.163

I'd like to know its composite z-score. The compound in question is "COC(=O)CC=C[C@@H](C)[C@H](OCc1cccc(-c2ccccc2)c1)C1CCCCC1"
0.704

I'd like to know its composite z-score. The compound in question is "O=C(NN=C1C[C@@H](O)[C@@H](O)[C@@H]2[C@@H]3C(=O)N(C[C@@H]4CCCO4)C(=O)[C@@H]3CC[C@H]12)OCc1ccccc1"
-0.526

I'd like to know its composite z-score. The compound in question is "COC(=O)[C@@H]1CC[C@H](C)[C@@H](c2ccc(C)cc2)N1C(=O)c1ccc(C=NOC[C@@H](C)[C@H](OCc2ccccc2)C(C)C)cc1"
0.0611
